Values were extracted from patent US7803992B2.

Attribute: pest or weed control at 200 g/ha
tested on: parent elite stiff stalk inbred corn; assay: Postemergence herbicide application in greenhouse: fresh shoot weight and visual injury; assay type: in vivo; conditions: Zea mays, post-emergence; postemergence, 200 g/ha (glyphosate 3472 g ae/ha, glufosinate ammonium 1870 g/ha); 0% no injury, 100% plant death; mean of four replications; read-out: % Visual Injury
property.label: pest or weed control at 200 g/ha (%)

- CCS(=O)(=O)c1cccnc1S(=O)(=O)NC(=O)Nc1nc(OC)cc(OC)n1 [Rimsulfuron]: 91
- CCc1cnc(C2=NC(C)(C(C)C)C(=O)N2)c(C(=O)O)c1 (stereo not drawn) [Imazethapyr]: 97
- COc1cc(OC)nc(NC(=O)NS(=O)(=O)c2ncccc2C(=O)N(C)C)n1 [Nicosulfuron]: 24
- COc1cc(OC)nc(NC(=O)NS(=O)(=O)N(C)S(C)(=O)=O)n1 [Amidosulfuron]: 71
- CC(C)C1(C)N=C(c2ncccc2C(=O)O)NC1=O (stereo not drawn) [Imazapyr]: 100
- COc1cc(OC)nc(NC(=O)NS(=O)(=O)c2c(-c3nnn(C)n3)cnn2C)n1 [Azimsulfuron]: 100
- COC(=O)c1ccccc1S(=O)(=O)NC(=O)N(C)c1nc(C)nc(OC)n1 [Tribenuron-methyl]: 100
- CCOc1ccccc1OS(=O)(=O)NC(=O)Nc1nc(OC)cc(OC)n1 [Ethoxysulfuron]: 88
- COc1nc(C)nc(NC(=O)NS(=O)(=O)c2ccccc2OCCCl)n1 [Triasulfuron]: 97
